Biological target: UniProt:P34972
Test: Inverse agonist activity at recombinant human CB2 receptor expressed in CHO-K1 cells assessed as increase in […]-induced cAMP production by luminescence assay
Readout type: pEC50
// pEC50 here means minus log10 of the molar concentration (mol/L)

For CCCCCn1c(=O)c(C(=O)NC23CC4CC(CC(C4)C2)C3)c(O)c2ccc(F)cc21 on UniProt:P34972, measured pEC50 was 7.75

For CCCCCn1c(=O)c(C(=O)NC23CC4CC(CC(C4)C2)C3)c(O)c2cc(C(C)C)ccc21 on UniProt:P34972, measured pEC50 was 8.59

For CCCCCn1c(=O)c(C(=O)NC23CC4CC(CC(C4)C2)C3)c(O)c2ccccc21 on UniProt:P34972, measured pEC50 was 8.62

====

Experiment: Kinetic solubility in DMSO solution at pH 7.4 after 2 hrs by HPLC-UV analysis
Format: physicochemical
Conditions: pH 7.4, 2 h
Readout type: log(Kinetic_solubility)
Field format: numeric only.

Briefly, log(Kinetic_solubility) measured for CCCCCn1c(=O)c(C(=O)NC23CC4CC(CC(C4)C2)C3)c(O)c2cc(C(C)C)ccc21 : -5.38

Briefly, log(Kinetic_solubility) measured for CCCCCn1c(=O)c(C(=O)NC23CC4CC(CC(C4)C2)C3)c(O)c2ccccc21 : -5.47

Briefly, log(Kinetic_solubility) measured for CN(C)CCn1cc(C(=O)NC23CC4CC(CC(C4)C2)C3)c(=O)c2ccc(F)cc21 : -4.87

Briefly, log(Kinetic_solubility) measured for CCCCCn1c(=O)c(C(=O)NC23CC4CC(CC(C4)C2)C3)c(O)c2ccc(F)cc21 : -5.45

Briefly, log(Kinetic_solubility) measured for CCCCCn1c2c(c(O)c(C(=O)NC34CC5CC(CC(C5)C3)C4)c1=O)CCCC2 : -5.5

Briefly, log(Kinetic_solubility) measured for CCCCCn1cc(C(=O)NC23CC4CC(CC(C4)C2)C3)c(=O)c2cc(C(C)C)ccc21 : -5.64

Briefly, log(Kinetic_solubility) measured for CCCCCn1cc(C(=O)NC23CC4CC(CC(C4)C2)C3)c(=O)c2ccc(F)cc21 : -7.47

Briefly, log(Kinetic_solubility) measured for CC(C)c1cc2c(=O)c(C(=O)NC34CC5CC(CC(C5)C3)C4)cn(CCN(C)C)c2cc1F : -4.57

Briefly, log(Kinetic_solubility) measured for CC(C)c1ccc2c(c1)c(=O)c(C(=O)NC13CC4CC(CC(C4)C1)C3)cn2CCN(C)C : -4.99

====

Molecular target: Cannabinoid receptor 2 (Homo sapiens, UniProt P34972)
Sequence (P34972 whole entry): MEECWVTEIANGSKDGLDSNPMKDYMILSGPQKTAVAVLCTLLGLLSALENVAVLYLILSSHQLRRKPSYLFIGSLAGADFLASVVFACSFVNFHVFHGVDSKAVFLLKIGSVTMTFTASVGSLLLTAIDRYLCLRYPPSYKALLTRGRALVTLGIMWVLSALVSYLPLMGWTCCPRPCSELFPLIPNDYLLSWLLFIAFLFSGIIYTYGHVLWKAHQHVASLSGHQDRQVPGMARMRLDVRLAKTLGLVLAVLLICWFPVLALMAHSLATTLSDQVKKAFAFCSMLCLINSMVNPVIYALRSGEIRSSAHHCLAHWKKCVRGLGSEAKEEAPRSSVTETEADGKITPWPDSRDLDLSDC
Assay: Displacement of [3H]-CP-55940 from human recombinant CB2 receptor expressed in HEK293 cells after 90 mins by Competition binding assay
Format: cell-based
Readout type: Kieq (nM)
Answer with a number only, understood to be in nM.

Briefly, Kieq measured for O=C(NC12CC3CC(CC(C3)C1)C2)c1cn(CCN2CCS(=O)(=O)CC2)c2cc(F)ccc2c1=O : 246

Briefly, Kieq measured for CCCCCn1cc(C(=O)NC23CC4CC(CC(C4)C2)C3)c(=O)c2ccc(F)cc21 : 0.8

Briefly, Kieq measured for CCCCCn1c(=O)c(C(=O)NC23CC4CC(CC(C4)C2)C3)c(O)c2cc(C(C)C)ccc21 : 0.53

Briefly, Kieq measured for CCCCCn1cc(C(=O)NC23CC4CC(CC(C4)C2)C3)c(=O)c2cc(-c3ccccc3)ccc21 : 3.8

Briefly, Kieq measured for CCCCCn1c(=O)c(C(=O)NC23CC4CC(CC(C4)C2)C3)c(O)c2cc(C(C)C)c(F)cc21 : 66.4

====

So I've got a bunch of compounds here, and I need their Ratio Ki values.
Organism: Homo sapiens
Experiment: Selectivity index, ratio of Ki for recombinant human CB1 receptor to Ki for recombinant human CB2 receptor
Field format: numeric only.

Briefly, Ratio Ki measured for O=C(NCc1ccc(F)cc1)c1c(O)c2cc(-c3ccco3)ccc2n(CCCCO)c1=O : 6

Briefly, Ratio Ki measured for CCCCCn1c(=O)c(C(=O)NC23CC4CC(CC(C4)C2)C3)c(O)c2ccc(F)cc21 : 1380

Briefly, Ratio Ki measured for CCCCCn1cc(C(=O)NC23CC4CC(CC(C4)C2)C3)c(=O)c2ccc(F)cc21 : 38

Briefly, Ratio Ki measured for CCCCCn1c(=O)c(C(=O)NC23CC4CC(CC(C4)C2)C3)c(O)c2cc(C(C)C)ccc21 : 2350

Briefly, Ratio Ki measured for O=C(NC12CC3CC(CC(C3)C1)C2)c1cn(CCN2CCS(=O)(=O)CC2)c2cc(F)ccc2c1=O : 8

Briefly, Ratio Ki measured for CCCCCn1cc(C(=O)NC23CC4CC(CC(C4)C2)C3)c(=O)c2ccc(Sc3ccccc3)cc21 : 3.3

Briefly, Ratio Ki measured for CCCCCn1c(=O)c(C(=O)NCc2ccc(OC)cc2)c(O)c2cc(-c3cccs3)ccc21 : 8

Briefly, Ratio Ki measured for CCCCCn1cc(C(=O)NC23CC4CC(CC(C4)C2)C3)c(=O)c2ccccc21 : 9

Briefly, Ratio Ki measured for CN(C)CCn1cc(C(=O)NC23CC4CC(CC(C4)C2)C3)c(=O)c2ccc(F)cc21 : 8

Briefly, Ratio Ki measured for O=C(NCC1CCCCC1)c1c(O)c2ccccc2n(CCCCO)c1=O : 20

Briefly, Ratio Ki measured for CC(C)c1cc2c(=O)c(C(=O)NC34CC5CC(CC(C5)C3)C4)cn(CCN(C)C)c2cc1F : 63

====

Target: Cannabinoid receptor 1 (Homo sapiens)
Conditions: HEK293
Description: Displacement of [3H]-CP-55940 from human recombinant CB1 receptor expressed in HEK293 cells after 90 mins by Competition binding assay
Readout type: Kieq (nM)
Answer with a number only, understood to be in nM.

Briefly, Kieq measured for CCCCCn1cc(C(=O)NC23CC4CC(CC(C4)C2)C3)c(=O)c2ccccc21 : 42.1

Briefly, Kieq measured for CCCCCn1c(=O)c(C(=O)NC23CC4CC(CC(C4)C2)C3)c(O)c2cc(C(C)C)ccc21 : 1240

Briefly, Kieq measured for CC(C)c1cc2c(=O)c(C(=O)NC34CC5CC(CC(C5)C3)C4)cn(CCN(C)C)c2cc1F : 717

Briefly, Kieq measured for O=C(NCc1ccc(F)cc1)c1c(O)c2cc(-c3ccco3)ccc2n(CCCCO)c1=O : 1580

Briefly, Kieq measured for O=C(NCC1CCCCC1)c1c(O)c2ccccc2n(CCCCO)c1=O : 829

Briefly, Kieq measured for CCCCCn1cc(C(=O)NC23CC4CC(CC(C4)C2)C3)c(=O)c2ccc(Sc3ccccc3)cc21 : 5.3

====

So I've got a bunch of compounds here, and I need their solubility kinetic at 2 h values.
Experiment: Kinetic solubility in DMSO solution at pH 1.0 after 2 hrs by HPLC-UV analysis
Type: physicochemical
Conditions: read-out: Kinetic_solubility
Answer with a number only, understood to be in µg/mL.

Briefly, solubility kinetic at 2 h measured for CN(C)CCn1cc(C(=O)NC23CC4CC(CC(C4)C2)C3)c(=O)c2ccc(F)cc21 : 170

Briefly, solubility kinetic at 2 h measured for CCCCCn1cc(C(=O)NC23CC4CC(CC(C4)C2)C3)c(=O)c2cc(C(C)C)ccc21 : 0.21

Briefly, solubility kinetic at 2 h measured for CCCCCn1c(=O)c(C(=O)NC23CC4CC(CC(C4)C2)C3)c(O)c2cc(C(C)C)ccc21 : 0.02

Briefly, solubility kinetic at 2 h measured for CC(C)c1cc2c(=O)c(C(=O)NC34CC5CC(CC(C5)C3)C4)cn(CCN(C)C)c2cc1F : 35.5

Briefly, solubility kinetic at 2 h measured for CC(C)c1ccc2c(c1)c(=O)c(C(=O)NC13CC4CC(CC(C4)C1)C3)cn2CCN(C)C : 31.5

Briefly, solubility kinetic at 2 h measured for CCCCCn1cc(C(=O)NC23CC4CC(CC(C4)C2)C3)c(=O)c2ccc(F)cc21 : 0.05

Briefly, solubility kinetic at 2 h measured for CCCCCn1c(=O)c(C(=O)NC23CC4CC(CC(C4)C2)C3)c(O)c2ccc(F)cc21 : 0.17

Briefly, solubility kinetic at 2 h measured for CCCCCn1c(=O)c(C(=O)NC23CC4CC(CC(C4)C2)C3)c(O)c2ccccc21 : 0.23

Briefly, solubility kinetic at 2 h measured for CCCCCn1c2c(c(O)c(C(=O)NC34CC5CC(CC(C5)C3)C4)c1=O)CCCC2 : 0.1

====

Biological target: Cannabinoid receptor 2 (Homo sapiens)
Test: Displacement of [3H]-CP-55940 from human recombinant CB2 receptor expressed in HEK293 cells after 90 mins by Competition binding assay
Format: cell-based
Ranges used to classify Kieq: category 1: < 10 nM; category 2: ≥ 10 nM and < 300 nM; category 3: ≥ 300 nM

Req: Which Kieq band matches O=C(NCC1CCCCC1)c1c(O)c2ccccc2n(CCCCO)c1=O ?
Resp: category 2

Req: Which Kieq band matches CCCCCn1cc(C(=O)NC23CC4CC(CC(C4)C2)C3)c(=O)c2ccc(Sc3ccccc3)cc21 ?
Resp: category 1

Req: Which Kieq band matches CCCCCn1c(=O)c(C(=O)NC23CC4CC(CC(C4)C2)C3)c(O)c2ccc(F)cc21 ?
Resp: category 1

Req: Which Kieq band matches COCCOCn1cc(C(=O)NC23CC4CC(CC(C4)C2)C3)c(=O)c2cc(C(C)C)ccc21 ?
Resp: category 3

Req: Which Kieq band matches CC(C)c1cc2c(=O)c(C(=O)NC34CC5CC(CC(C5)C3)C4)cn(CCN(C)C)c2cc1F ?
Resp: category 2

Req: Which Kieq band matches O=C(NCc1ccc(F)cc1)c1c(O)c2cc(-c3ccco3)ccc2n(CCCCO)c1=O ?
Resp: category 2

Req: Which Kieq band matches CC(C)c1ccc2c(c1)c(=O)c(C(=O)NC13CC4CC(CC(C4)C1)C3)cn2CCN1CCS(=O)(=O)CC1 ?
Resp: category 3

Req: Which Kieq band matches CC(C)c1ccc2c(c1)c(=O)c(C(=O)NC13CC4CC(CC(C4)C1)C3)cn2CCN(C)C ?
Resp: category 2

Req: Which Kieq band matches CN(C)CCn1cc(C(=O)NC23CC4CC(CC(C4)C2)C3)c(=O)c2ccc(F)cc21 ?
Resp: category 2
